- Tested on: HIV-1
- experiment_summary: microbe, parasite or virus in culture
- Format: cell-based
- study_conditions: Human immunodeficiency virus 1, HEK-293T, read-out: Approximate Effective Concentration (EC50)
Parameter: EC50. Scope: all listed entries.
Reply numerically in µM, unit not repeated.

Consider the worked cases shown below.
// recorded EC50 for COc1ccc2nc([S@@+]([O-])Cc3ncc(C)c(OC)c3C)[nH]c2c1 [Esomeprazole, Esomeprazole magnesium hydrate] : 75

Briefly, EC50 measured for Cc1c(OCC(F)(F)F)ccnc1C[S+]([O-])c1nc2ccccc2[nH]1 (centres unmarked) [Lansoprazole, lansoprazole] : 25

Reported EC50 for COCCCOc1ccnc(C[S+]([O-])c2nc3ccccc3[nH]2)c1C (centres unmarked) [Rabeprazole, rabeprazole sodium] was 15

Continuing:
The molecule identified as COc1ccc2[nH]c([S+]([O-])Cc3ncc(C)c(OC)c3C)nc2n1 (centres unmarked) [Tenatoprazole, tenatoprazole] registered its EC50 at 50
